# subject_of_test: IL-17A/F (Homo sapiens, UniProt Q16552+Q96PD4)
# Sequence (Q16552 24-155): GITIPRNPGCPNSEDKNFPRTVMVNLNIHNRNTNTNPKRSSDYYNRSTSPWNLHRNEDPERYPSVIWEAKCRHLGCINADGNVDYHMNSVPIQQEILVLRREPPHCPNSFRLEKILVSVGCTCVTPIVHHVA
# Sequence (Q96PD4 31-163): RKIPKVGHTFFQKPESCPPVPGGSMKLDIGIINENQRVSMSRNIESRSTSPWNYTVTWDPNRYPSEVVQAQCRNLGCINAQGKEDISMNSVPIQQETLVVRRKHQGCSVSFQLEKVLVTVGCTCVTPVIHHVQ
# assay_method_text: IL-17A/F HEK-Blue cell assay (SEAP reporter)
# condition_context: HEK-Blue IL-17A reporter cells, IL17A/F 5 ng/mL, 20 hours, SEAP read at A630; read-out: HEK-Blue IL17AF (IC50 for IL-17A/F inhibition)
pIC50: −log10 of the molar value.
measurement_label: pIC50

Lookup result for CCn1nccc1C(=O)N[C@H](c1cn2nc(C[C@H]3C[C@@H](C(F)(F)F)CNC3=O)c(N3CCOC(COC)C3)nc2n1)C1CCC(F)(F)CC1 (stereo partly drawn) [Compound 416] ; measured pIC50: 6.00 to 7.00

Lookup result for Cc1nonc1C(=O)N[C@H](c1cn2nc(C[C@H]3C[C@@H](C(F)(F)F)CNC3=O)c(CN3CCOCC3)nc2n1)C1CCC(F)(F)CC1 [Compound 407] ; measured pIC50: < 6.00

Lookup result for CCn1nccc1C(=O)N[C@H](c1cn2nc(C[C@H]3C[C@@H](C(F)(F)F)CNC3=O)c(N3CCO[C@H](C)C3)nc2n1)[C@H]1CCCC(F)(F)C1 [Compound 121] ; measured pIC50: > 7.00

Lookup result for Cc1nonc1C(=O)N[C@H](c1cn2nc(C[C@H]3C[C@@H](C(F)(F)F)CNC3=O)c([C@@H]3CCOC3)nc2n1)C1CCC(F)(F)CC1 (single isomer, unassigned) [Compound 275] ; measured pIC50: < 6.00

Lookup result for CCc1nonc1C(=O)N[C@H](c1cn2nc(C[C@H]3C[C@@H](C(F)(F)F)CNC3=O)c(N3CCN(CCOC)CC3)nc2n1)C1CCC(F)(F)CC1 [Compound 421] ; measured pIC50: < 6.00

Lookup result for CCn1nccc1C(=O)N[C@H](c1cn2nc(C[C@H]3C[C@@H](C(F)(F)F)CNC3=O)c(C[C@H]3CCOC3)nc2n1)C1CCC(F)(F)CC1 (single isomer, unassigned) [Compound 225] ; measured pIC50: 6.00 to 7.00

Lookup result for CCn1nccc1C(=O)N[C@H](c1cn2nc(C[C@H]3C[C@@H](C(F)(F)F)CNC3=O)c(CN3CCOCC3)nc2n1)[C@H]1CC[C@H](C)CC1 [Compound 374] ; measured pIC50: 6.00 to 7.00

Lookup result for O=C(N[C@H](c1cn2nc(CC3C[C@@H](C(F)(F)F)CNC3=O)c(N3CCOCC3)nc2n1)C1CCC(F)(F)CC1)c1conc1C1CC1(F)F (single isomer, unassigned) [Compound 115] ; measured pIC50: < 6.00

Lookup result for Cn1nccc1C(=O)N[C@H](c1cn2nc(C[C@H]3C[C@@H](C(F)(F)F)CNC3=O)c(C3CCOCC3)nc2n1)C1CCCCC1 [Compound 405] ; measured pIC50: 6.00 to 7.00

Lookup result for CCn1nccc1C(=O)N[C@H](c1cn2nc(C[C@H]3C[C@@H](C(F)(F)F)CNC3=O)c(C3CCCCN3CCOC)nc2n1)C1CCC(F)(F)CC1 (stereo partly drawn) [Compound 369] ; measured pIC50: < 6.00

Lookup result for CC(C)c1nonc1C(=O)N[C@H](c1cn2nc(C[C@H]3C[C@@H](C(F)(F)F)CNC3=O)cnc2n1)C1CCC(F)(F)CC1 [Compound 37] ; measured pIC50: < 6.00

Lookup result for O=C(N[C@H](c1cn2nc(C[C@H]3C[C@@H](C(F)(F)F)CNC3=O)c(C3CCOCC3)nc2n1)C1CCC(F)(F)CC1)c1ccn[nH]1 [Compound 154] ; measured pIC50: < 6.00

Lookup result for O=C(N[C@H](c1cn2nc(CC3C[C@@H](C(F)(F)F)CNC3=O)c(N3CCOCC3)nc2n1)C1CCC(F)(F)CC1)c1nonc1C1CC1 (stereo partly drawn) [Compound 57] ; measured pIC50: < 6.00

Lookup result for CCn1nccc1C(=O)N[C@H](c1cn2nc(C[C@H]3C[C@@H](C(F)(F)F)CNC3=O)c(C3CCCN3C)nc2n1)C1CCC(F)(F)CC1 (stereo partly drawn) [Compound 413] ; measured pIC50: < 6.00

Lookup result for CCn1nccc1C(=O)N[C@H](c1cn2nc(C[C@H]3C[C@@H](C(F)(F)F)CNC3=O)c(N3CCO[C@@H](C)C3)nc2n1)[C@H]1CC[C@H](C)CC1 [Compound 158] ; measured pIC50: 6.00 to 7.00
